Tested on: HT-29 (CRC)
Assay: MTT cell viability assay, HT-29
Conditions: HT-29, 24 h
Method: Cell Culture Conditions. The cell lines were obtained from the American Type Culture Collection (ATCC). […] Cell Viability Assay. […] The resultant formazan crystals were dissolved in 50 μL of DMSO, and absorbance was measured at 570 nm and 630 nm wavelengths. IC50, GI50, TGI and LC50 values were calculated using OriginPro 8.5.1. […]
observed.property: IC50 (µM)
Please respond with the number in µM and leave the unit unwritten.

// recorded IC50 for C[Se]C(=O)CC1=C(C)/C(=C/c2ccc([S+](C)[O-])cc2)c2ccc(F)cc21 (stereo not shown) : 2.4
